Tested on: DMS79
measurementNotes: cell cytotoxicity EC50, CellTiter Glo, SCLC cell line
Type: cell-based, human
details: DMS-79, 10% human serum, 48 hours, read-out: EC50
observable: pEC50
Give bare numbers, as −log10 of the molar value.

// CC1(C)CCC(c2ccc(Cl)cc2)=C(CN2CCN(c3ccc(C(=O)NS(=O)(=O)c4ccc(N[C@H](CCN5CCOCC5)CSc5ccccc5)c(S(=O)(=O)C(F)(F)F)c4)cc3)CC2)C1 : pEC50 value = 5.72

---

Test system: U-937
measurementNotes: cell cytotoxicity EC50, CellTiter Glo, leukemia/lymphoma cell line
Format: cell-based, human
details: Homo sapiens, read-out: Response Designation
observable: EC50

// CC1(C)CCC(c2ccc(Cl)cc2)=C(CN2CCN(c3ccc(C(=O)NS(=O)(=O)c4ccc(N[C@H](CCN5CCOCC5)CSc5ccccc5)c(S(=O)(=O)C(F)(F)F)c4)cc3)CC2)C1 : EC50 value = > 4.8 µM
